system: T1, human plasma kallikrein (human, UniProt P03952 20-390; P03952 391-638)
T1 construct: two disulfide linked chains; also called pKal; human pKal
T1 sequence (P03952 20-390, chain 1 of 2): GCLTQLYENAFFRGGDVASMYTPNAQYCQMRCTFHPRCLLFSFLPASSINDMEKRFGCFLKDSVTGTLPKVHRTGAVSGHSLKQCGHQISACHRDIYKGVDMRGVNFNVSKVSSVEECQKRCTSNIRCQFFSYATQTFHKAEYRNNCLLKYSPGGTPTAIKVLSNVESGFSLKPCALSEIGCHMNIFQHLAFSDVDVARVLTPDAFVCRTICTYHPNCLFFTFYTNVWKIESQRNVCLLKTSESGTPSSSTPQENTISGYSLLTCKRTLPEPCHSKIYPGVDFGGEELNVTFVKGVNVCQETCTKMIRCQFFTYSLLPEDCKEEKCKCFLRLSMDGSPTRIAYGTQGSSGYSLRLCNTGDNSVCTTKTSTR
T1 sequence (P03952 391-638, chain 2 of 2): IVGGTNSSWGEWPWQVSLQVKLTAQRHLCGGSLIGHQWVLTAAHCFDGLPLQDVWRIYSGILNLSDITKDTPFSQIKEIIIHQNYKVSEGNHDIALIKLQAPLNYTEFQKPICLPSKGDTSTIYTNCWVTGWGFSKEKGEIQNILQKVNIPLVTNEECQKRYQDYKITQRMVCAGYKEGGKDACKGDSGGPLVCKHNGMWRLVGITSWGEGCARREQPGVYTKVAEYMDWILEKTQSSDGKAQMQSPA
assay overview: Ki,app, enzyme inhibition of pKal; antibody format not stated
readout kind: Ki (nM)

binder | measured value
X59-C07 (antibody, V domains shown, Found by ROLIC light chain shuffling) VH: EVQLLESGGGLVQPGGSLRLSCAASGFTFSHYLMTWVRQAPGKGLEWVSYISPSGGHTIYADSVKGRFTISRDNSKNTLYLQMNSLRAEDTAVYYCARVARGIAARSRTSYFDYWGQGTLVTVSS VL: DIQMTQSPSSLSASVGDRVTVTCRAGRSISTYVNWYQQKPGKAPKLLIYAASSLQSGVPSRFSGSRSGTDFTLTISSLQPEDFATYYCQQSQSTPYTFGQGTKLEVK | 6.1
